TEST_PROTOCOL: yeast display, Sf9 membrane polyspecificity reagent, FACS + sequencing; frameworks hold sequencing errors

# SEQUENCE_ENTRY, polyreactivity (PSR sort gate)
records = [
    ("QVQLVESGGGLVQAGGSLRLSCAASGRTFYNYAMGWYRQAPGKERELVAAISGSGGSTYYADSVKGRFTISRDNAKNTVYLQMNSLKPEDTAVYYCAARKDSYYYRSYDSWGQGTQVTVSS", "high polyreactivity"),
    ("QVQLVESGGGLVQAGGSLRLSCAASGRIFSGYAMGSYRQAPGKERELVAAITSVGSTNYADSVKGLFTISRDNAKNTVYLQMNSLKPEDTAVFNCAAKRYRPKYEYYYWGLGTQVTVSS", "high polyreactivity"),
    ("QVQLVESGGGLVQAGGSLRLSCAASGSIFAYYAMGWYRQAPGKERELVAGIRISGGRTYYADSVKGRFTISRDTAKNTVYLQMNSLKPEDTAVYYCNARWRGFRTGAGDYWGQGTQVTVSS", "high polyreactivity"),
    ("QVHLVESGGGLVQAGGSLRLSCAASGRIFVFNAMGWYRQAPGKDRELVAAISRSAFSTYYADSVKGRFTISRDNAKNTVYLHMISLIPEDTAVYYCTDERTYWFFWEMDSWGQGTQVTVSS", "low polyreactivity"),
    ("QVQLVESGGGLVQAGGRLRLSCAASGSIFYGYDMGWYRQAPGKERELVAAITIGGGTTYYADSVKGRFTISRDNAKNTVYLQMNSLKPEDTAVYYCAKTYARPTRVQKYSGEGGYWGQGTQVTVSS", "high polyreactivity"),
    ("QVQLVESGGGLVQAGGSLRLSCAASGSIFYYAMGWYRQAPGKERELVATISASGGSTYYADSVKGRFTISRDNEKNTVYLQMNSLKAEDTAVYYCAVRYKSWYGFNYWGQGTQVTVSS", "high polyreactivity"),
    ("QVQLVESGGGLVQAGGSLRLSCAASGNTFYKYAMRWYRQAPGKERELVADISWSGGSTYYADSVKGRFTISRDNAKNTVYLQMNSLKPEDTAVYYCNADTPVWDGHAYPVDYWGQGTQVTVSS", "low polyreactivity"),
    ("QVQLVESGGGLVQAGGSLRLSCAASGSTFSRYAMGWSRQAPGKERELVAAISWSGGSTYYAVSVKGRFTISRDNAKNTVYLQMISLKPEDTAVYYCAAYTYSFRANHDYWGQGTQVTVSS", "high polyreactivity"),
    ("QVQLVESGGGLVQAGGSLRLSCAASGGIFDPYAMGWYRQAPGKERELVAAITNSGGSTYYADSVKGRFTISRDNAKNTVYLQMNSLKPEDTAVYYCAAEGLYVGYDYWGQGTQVTVSS", "low polyreactivity"),
    ("QVQLVESGGGLVQAGGSLRLSCAASGRILGQYVMGWYRQAPGKERELVASIRSGGVSTYYADSVKGRFTISRDNAKNTVYLQMNSLKPEDTAVYYCAKGSPGPRRYKFDYWGQGTQVTVSS", "low polyreactivity"),
    ("QVQLVESGGGLVQAGGSLRLSCAASGSTFSTNAMGWYRPAPAKEREFGAAITWSGDSTDYADSVKGRFTISRDNAKNTVYLHMNSLKPEDTAVYYCSAGPFLESYRGYSEMDYWGQGTQVTVSS", "low polyreactivity"),
    ("QVQLVVSGGGLVQAGGSLRLSCAASGITFGRNTMGWYRQAPGKERELVAAIDSGGNTYADSVKGRFTISRDNAKNTVYLQMNSLKPEDTAVYYCAVDGGEFSSYGYWGQGTQVTVSS", "low polyreactivity"),
    ("QVQRVESGGGIVQAGGSLRLSCAASGFIFRRYAMGWYRQAPGKERELVAAISSSGGRTTYADSVKGRFTISRDNAKNTVYLQMNSLKPEDTAVYYFNADLWPGNHDGYWGQGTQVSVSS", "low polyreactivity"),
    ("QVQLVESGGGLVQAGGSLRLSCAASGSIFAGYAMGWYRQAPGKERELVAAISSSGGRTYYADSVKGRFTISRDNAKNTVYLQMNSLKPVDTAVYYCAVSTYEEEYWGQGTQVTVSS", "high polyreactivity"),
    ("QVQLVESGGGFVQAGGSLRLSCAASGLIFSWYDMGWYRQAPGKERELVAAITTDGDDTYYADSVKGRFTISRDNAKNTVYLQMNSLKPEDTAVYYCAADSELAIRYPDRDYDSWGQGTQVTVSS", "low polyreactivity"),
    ("QVQHVESGGGLVQAGGSLRLSCAASGSTFFKYDMGWYRPAPGTERELVAVITWSGGTTFYADSVKGRFTISRDNANNTVYLQMNSLKPEDTAVSYCAADYYGYRYDYWGQGTQVTVSS", "low polyreactivity"),
    ("QVQLVESGGGLVQAGGSLRLRCAASGNTFAYYAMGWYRQAPGKERELVASITGSGTSTYYADSVKGRFTISRDNEKNTVYLQMNSLKPEDTAVYYCAKRYYYKWFGYWGQGTQVTVSS", "high polyreactivity"),
    ("QVQLVESGGGLVQAGGSLRLSCAASGRTFYVYAMGWYRQAPGKERELVAAITASGGSTYYADSVKGRFTLSRDNAKNTVYLQMNSLKPEDTAVYYCAARVVTLVRGVGYNYWGQGTQVTVSS", "high polyreactivity"),
    ("QVQLVESGGGLVQAGGSLRLSCDASGTLSPYAMGWYRQAPGKERELVAVITSNTGRTYADSVKGRFTISRYNSKNTVYLQKNTLNPQDTAFFYCYWGQGTQVTVTS", "low polyreactivity"),
    ("QVQLVESGGGLVQAGGSLRLSCAASGLTFPYYAMGWYRQAPGKEREFVAAISRGGGRTSYADSVKGRFTISRDNAKNTVYLQMNSLKPEDTAVYYCAADDPGWYSDLYYYWGLGTQVTVSS", "high polyreactivity"),
    ("QVQLVESGGGLVQAGGSLRLSCAASGFIFYYNTMGWYRQAPGKERELVAAISSGGRTYYADSVKGRFTISRDNAKNTVYLQMNSLKPEVTAVYYCNVVTYVKYGYWGQGTQVTVSS", "high polyreactivity"),
]
